Test: Metabolic stability, mouse liver microsomes
Type: in vitro ADME
Settings: pH 7.4, 1 μM test item, 1 mM NADPH, 60 minutes
observable: half-life at 1 μM

Sample records with half-life at 1 μM:
(Q) Recorded half-life at 1 μM for COc1ncnc(C2CC2)c1-c1nc(NCc2ccc(-c3nc(C(F)(F)F)cn3C)cc2)c2cccn2n1 , please?
(A) ≥ 30 min

(Q) Recorded half-life at 1 μM for Cc1cnc(-c2ccccc2C(C)C)nc1NCc1ccc(-n2ccnn2)cc1 [ML323, reference compound] , please?
(A) 7.58 min

Shifting focus to the compound that follows.
(Q) Recorded half-life at 1 μM for COc1ncnc(C2CC2)c1-c1nc(NCc2ccc(-c3nc(C(F)(F)F)cn3C)cc2)c2[nH]cnc2n1 , please?
(A) ≥ 230 min

* * *

This section presents compounds with their documented half-life at 1 μM values.
Assay: Metabolic stability, human liver microsomes
Assay type: in vitro ADME
Conditions: pH 7.4, 1 μM test item, 1 mM NADPH, 60 minutes

(Q) Recorded half-life at 1 μM for COc1ncnc(C2CC2)c1-c1nc(NCc2ccc(-c3nc(C(F)(F)F)cn3C)cc2)c2cccn2n1 , please?
(A) ≥ 5 h

(Q) Recorded half-life at 1 μM for COc1ncnc(C2CC2)c1-c1nc(NCc2ccc(-c3nc(C(F)(F)F)cn3C)cc2)c2[nH]cnc2n1 , please?
(A) ≥ 11.7 h

More entries:
(Q) Recorded half-life at 1 μM for Cc1cnc(-c2ccccc2C(C)C)nc1NCc1ccc(-n2ccnn2)cc1 [ML323, reference compound] , please?
(A) 0.505 h

* * *

This section presents compounds with their documented inhibition at 1 µM values.
Target: USP1/UAF1 (Homo sapiens, UniProt O94782)
Sequence (O94782 whole entry): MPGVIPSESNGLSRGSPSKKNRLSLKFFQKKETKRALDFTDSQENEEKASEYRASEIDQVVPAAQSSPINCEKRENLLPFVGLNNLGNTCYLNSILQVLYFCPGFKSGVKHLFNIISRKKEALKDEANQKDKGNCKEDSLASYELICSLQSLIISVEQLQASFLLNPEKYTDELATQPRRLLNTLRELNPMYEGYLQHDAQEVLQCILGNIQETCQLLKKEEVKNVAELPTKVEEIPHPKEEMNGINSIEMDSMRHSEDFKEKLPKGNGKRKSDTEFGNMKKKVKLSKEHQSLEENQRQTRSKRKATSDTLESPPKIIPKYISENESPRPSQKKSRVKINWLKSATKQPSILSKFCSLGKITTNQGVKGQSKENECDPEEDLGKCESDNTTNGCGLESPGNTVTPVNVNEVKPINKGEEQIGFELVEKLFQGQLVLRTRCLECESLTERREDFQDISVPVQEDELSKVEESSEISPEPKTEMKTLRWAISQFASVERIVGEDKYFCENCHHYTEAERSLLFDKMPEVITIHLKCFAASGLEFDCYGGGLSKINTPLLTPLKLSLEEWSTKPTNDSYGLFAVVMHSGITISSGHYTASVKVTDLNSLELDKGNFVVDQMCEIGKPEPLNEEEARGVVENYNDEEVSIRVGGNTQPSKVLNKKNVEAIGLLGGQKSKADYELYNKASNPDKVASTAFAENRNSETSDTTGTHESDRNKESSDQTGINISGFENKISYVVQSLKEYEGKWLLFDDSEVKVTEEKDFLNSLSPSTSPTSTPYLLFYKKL
Sequence (Q8TAF3 whole entry partner): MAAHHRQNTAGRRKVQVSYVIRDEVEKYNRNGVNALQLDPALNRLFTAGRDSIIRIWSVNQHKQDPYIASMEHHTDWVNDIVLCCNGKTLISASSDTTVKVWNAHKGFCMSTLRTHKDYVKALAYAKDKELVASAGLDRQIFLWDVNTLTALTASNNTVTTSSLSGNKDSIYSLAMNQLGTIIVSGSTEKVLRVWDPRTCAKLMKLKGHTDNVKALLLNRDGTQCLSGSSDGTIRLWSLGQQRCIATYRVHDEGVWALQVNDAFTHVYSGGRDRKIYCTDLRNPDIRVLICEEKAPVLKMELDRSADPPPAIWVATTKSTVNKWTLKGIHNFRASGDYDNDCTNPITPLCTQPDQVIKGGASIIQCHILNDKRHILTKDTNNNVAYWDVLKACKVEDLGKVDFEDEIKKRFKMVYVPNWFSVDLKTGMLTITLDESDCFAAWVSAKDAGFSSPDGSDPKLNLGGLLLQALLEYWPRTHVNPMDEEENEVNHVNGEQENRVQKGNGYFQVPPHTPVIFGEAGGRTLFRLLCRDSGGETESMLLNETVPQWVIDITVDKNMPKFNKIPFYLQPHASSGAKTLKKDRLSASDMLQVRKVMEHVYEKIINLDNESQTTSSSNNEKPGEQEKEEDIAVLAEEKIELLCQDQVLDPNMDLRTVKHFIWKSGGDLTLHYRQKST
Experiment: USP1/UAF 1 assay (ubiquitin-rhodamine110 fluorometric deubiquitinase assay)
Format: biochemical
Conditions: read-out: Biochemical assay % inhibition @1 μM

(Q) Recorded inhibition at 1 µM for Cn1cc(C(F)(F)F)nc1-c1ccc(CNc2nc(-c3ccc(F)cc3F)nc3nc[nH]c23)cc1 [Example 40] , please?
(A) 50 to 75%

Shifting focus to the compound that follows.
(Q) Recorded inhibition at 1 µM for COc1ccc(-c2nc3c(c(NCc4ccc(-c5nc(C(F)(F)F)cn5C)cc4)n2)CCC3)c(OC)c1 [Example 68] , please?
(A) 50 to 75%

* * *

Biological target: USP1/UAF1 (Homo sapiens)
Assay: USP1/UAF 1 assay (ubiquitin-rhodamine110 fluorometric deubiquitinase assay)
Details: 1 nM USP1/UAF1, 150 nM Ub-Rho; read-out: Biochemical assay IC50
This section presents compounds with their documented IC50 values.

Sample records with IC50:
(Q) Recorded IC50 for COc1ncnc(C2CC2)c1-c1nc2c(c(NCc3ccc(-c4nc(C(F)(F)F)cn4C)cc3)c1C#N)CCC2 , please?
(A) 100 to 1000 nM

(Q) Recorded IC50 for COc1ncnc(C2CC2)c1-c1nc2c(c(NCc3ccc(-c4nc(C(F)(F)F)cn4C(C)C)cc3)n1)CCC2 , please?
(A) < 50 nM

(Q) Recorded IC50 for CC(C)c1ccccc1-c1nc2c(c(NCc3ccc(-c4nc(C(F)(F)F)cn4C)cc3)n1)CCC2 , please?
(A) < 50 nM

(Q) Recorded IC50 for COc1ncnc(C2CC2)c1-c1nc2c(c(NCc3ccc(-c4nc(C(F)(F)F)cn4C)cc3)n1)CCC2 , please?
(A) 50 to 100 nM

(Q) Recorded IC50 for CC(C)c1ccccc1-c1nc2c(c(NCc3ccc(-c4nc(C(F)(F)F)cn4C(C)C)cc3)n1)CCC2 , please?
(A) < 50 nM

(Q) Recorded IC50 for CC(C)c1ccccc1-c1nc(NCc2ccc(-c3nc(C(F)(F)F)cn3C)cc2)c2c(c1C#N)CCC2 , please?
(A) 50 to 100 nM

(Q) Recorded IC50 for COc1ncnc(C2CC2)c1-c1nc(NCc2ccc(-c3nc(C(F)(F)F)cn3C)cc2)c2cccn2n1 , please?
(A) < 50 nM

More entries:
(Q) Recorded IC50 for CC(C)c1ccccc1-c1nc(NCc2ccc(-c3nc(C(F)(F)F)cn3C)cc2)c2[nH]cnc2n1 , please?
(A) < 50 nM

* * *

This section presents compounds with their documented inhibition at 1 µM values.
Molecular target: USP1/UAF1 (Homo sapiens)
Assay: USP1/UAF 1 assay (ubiquitin-rhodamine110 fluorometric deubiquitinase assay)
Assay type: biochemical
Conditions: read-out: Biochemical assay % inhibition @1 μM

Sample records with inhibition at 1 µM:
(Q) Recorded inhibition at 1 µM for Cn1cc(C(F)(F)F)nc1-c1ccc(CNc2nc(-c3cccc(Cl)c3F)nc3c2CCC3)cc1 , please?
(A) 50 to 75%

(Q) Recorded inhibition at 1 µM for Cn1cc(C(F)(F)F)nc1-c1ccc(CNc2nc(-c3ccccc3C(F)(F)F)nc3c2CCC3)cc1 , please?
(A) > 75%

(Q) Recorded inhibition at 1 µM for COc1ccc(OC)c(-c2nc3c(c(NCc4ccc(-c5nc(C(F)(F)F)cn5C)cc4)n2)CCC3)c1 , please?
(A) 50 to 75%

More entries:
(Q) Recorded inhibition at 1 µM for COc1ccc(-c2nc3c(c(NCc4ccc(-c5nc(C(F)(F)F)cn5C)cc4)n2)CCC3)cc1OC , please?
(A) 50 to 75%

(Q) Recorded inhibition at 1 µM for CCOc1ccc(-c2nc3c(c(NCc4ccc(-c5nc(C(F)(F)F)cn5C)cc4)n2)CCC3)cn1 , please?
(A) 50 to 75%

(Q) Recorded inhibition at 1 µM for COc1ncnc(C2CC2)c1-c1nc2c(c(N(Cc3ccc(-c4nc(C(F)(F)F)cn4C)cc3)C(N)=O)n1)CCC2 , please?
(A) > 75%

(Q) Recorded inhibition at 1 µM for Cn1cc(C(F)(F)F)nc1-c1ccc(CNc2nc(-c3ccc(Cl)cc3Cl)nc3nc[nH]c23)cc1 , please?
(A) 50 to 75%
